# Test system: NIH3T3
# measurement-notes: Cytotoxic Profiling of Annotated Libraries Using Quantitative High-Throughput Screening (AID 1296008); note: % is set by controls: 0 for no effect and ±100 for the full control effect; nearly all actives have a fitted effect of over 60% in size
# condition-notes: Five cell lines viability, CellTiter-Glo ATP luminescence, 48-72 h; active compounds read low
Results filed as inconclusive are left out.
readout-label: max response (%)
Write down the numeric answer in % and omit the unit.

# molecule Nc1ccn(C2CO[C@H](CO)O2)c(=O)n1 (some centres undefined) ; its max response = -8.89

# molecule CCOC(=O)C=C[C@H](C[C@@H]1CCNC1=O)NC(=O)[C@@H](CC(=O)[C@@H](NC(=O)c1cc(C)on1)C(C)C)Cc1ccc(F)cc1 ; its max response = 0.598

# molecule CCCCCCCCCCCC(CC1OC(=O)C1CCCCCC)OC(=O)C(CC(C)C)NC=O (centres undefined) ; its max response = 0.608

# molecule Cc1cc(O)c2c(c1)C(=O)c1cccc(O)c1C2=O ; its max response = 4.67

# molecule O=C(CN1C(=O)C2(CCCC2)NC[C@H]1c1cc(F)cc(F)c1)Nc1ccc2c(c1)C[C@@]1(C2)C(=O)Nc2ncccc21 ; its max response = -4.62

# molecule C=C[C@@H]1CN2CCC1C[C@H]2[C@H](O)c1ccnc2ccc(OC)cc12 (some centres undefined) ; its max response = 3.02

# molecule NC[C@H]1O[C@H](O[C@H]2[C@@H](O)[C@@H](O[C@H]3O[C@H](CO)[C@@H](O)[C@H](N)[C@@H]3O)[C@H](N)C[C@@H]2N)[C@H](N)C[C@H]1O ; its max response = -1.89

# molecule COc1ccc(C(C)=O)c(O)c1 ; its max response = 2.86

# molecule CN1C(C(=O)Nc2ccccn2)=C(O)c2sc(Cl)cc2S1(=O)=O ; its max response = -1.3

# molecule CCC[C@H]1C[C@H](C(=O)N[C@@H]([C@@H]2O[C@@H](SC)[C@@H](O)[C@@H](O)[C@@H]2O)[C@H](C)Cl)N(C)C1 ; its max response = -6.56

# molecule O=[N+]([O-])c1cn2c(n1)OC[C@@H](OCc1ccc(OC(F)(F)F)cc1)C2 ; its max response = -7.72

# molecule CON=C(C(=O)N[C@@H]1C(=O)N2C(C(=O)O)=C(Cn3ccc(=N)n3CCO)CS[C@H]12)c1csc(N)n1 ; its max response = 1.39

# molecule CC(Oc1ccc(O)cc1)(P(=O)(O)O)P(=O)(O)O ; its max response = -5.52

# molecule CC(C)n1cnc2c(NCCc3ccc(O)cc3)nc(-c3csc4ccccc34)nc21 ; its max response = -7.93

# molecule CCCCC(=O)O[C@]1(C(=O)CO)[C@@H](C)C[C@H]2[C@@H]3CCC4=CC(=O)C=C[C@]4(C)[C@@]3(F)[C@@H](O)C[C@@]21C ; its max response = -1.65

# molecule CC(=CC(=O)Nc1ccccc1C(=O)O)c1ccc2ccccc2c1 ; its max response = -22.4

# molecule CC(Cc1ccc(O)c(O)c1)(NN)C(=O)O (centres undefined) ; its max response = -2.89

# molecule Cn1cc(C[C@@H](N)C(=O)O)c2ccccc21 ; its max response = -2.88

# molecule COc1ccc2cc([S+]([O-])Cc3ncc(C)c(OC)c3C)nc2c1 ; its max response = -6.22
